Target: epithelial sodium channel (ENaC) (Mus musculus, UniProt Q61180+Q9WU38+Q9WU39)
Construct: Mouse kidney M-1 cells were cultivated in DMEM; endogenous in cells; host or cells: mouse kidney M-1 cells (cortical collecting duct line), dexamethasone-treated, on transwell filters
Sequence (Q61180 1-699): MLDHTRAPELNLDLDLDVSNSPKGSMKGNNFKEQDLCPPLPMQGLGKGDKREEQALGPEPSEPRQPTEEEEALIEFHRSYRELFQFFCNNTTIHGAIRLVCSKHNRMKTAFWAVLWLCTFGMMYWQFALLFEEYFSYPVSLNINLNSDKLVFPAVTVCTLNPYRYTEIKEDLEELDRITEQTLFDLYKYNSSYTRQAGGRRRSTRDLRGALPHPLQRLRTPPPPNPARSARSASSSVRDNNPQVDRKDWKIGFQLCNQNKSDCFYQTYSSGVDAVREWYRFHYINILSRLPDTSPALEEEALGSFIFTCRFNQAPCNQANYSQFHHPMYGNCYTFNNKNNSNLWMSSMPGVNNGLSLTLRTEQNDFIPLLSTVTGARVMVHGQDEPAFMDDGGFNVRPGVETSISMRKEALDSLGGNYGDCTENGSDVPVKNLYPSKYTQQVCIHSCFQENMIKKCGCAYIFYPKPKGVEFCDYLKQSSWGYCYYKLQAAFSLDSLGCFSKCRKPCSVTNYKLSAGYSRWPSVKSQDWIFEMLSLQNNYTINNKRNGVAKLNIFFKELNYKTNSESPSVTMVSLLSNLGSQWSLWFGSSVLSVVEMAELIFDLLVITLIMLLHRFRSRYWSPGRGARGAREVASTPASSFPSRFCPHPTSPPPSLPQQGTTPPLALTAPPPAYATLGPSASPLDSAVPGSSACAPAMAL
Sequence (Q9WU38 1-638): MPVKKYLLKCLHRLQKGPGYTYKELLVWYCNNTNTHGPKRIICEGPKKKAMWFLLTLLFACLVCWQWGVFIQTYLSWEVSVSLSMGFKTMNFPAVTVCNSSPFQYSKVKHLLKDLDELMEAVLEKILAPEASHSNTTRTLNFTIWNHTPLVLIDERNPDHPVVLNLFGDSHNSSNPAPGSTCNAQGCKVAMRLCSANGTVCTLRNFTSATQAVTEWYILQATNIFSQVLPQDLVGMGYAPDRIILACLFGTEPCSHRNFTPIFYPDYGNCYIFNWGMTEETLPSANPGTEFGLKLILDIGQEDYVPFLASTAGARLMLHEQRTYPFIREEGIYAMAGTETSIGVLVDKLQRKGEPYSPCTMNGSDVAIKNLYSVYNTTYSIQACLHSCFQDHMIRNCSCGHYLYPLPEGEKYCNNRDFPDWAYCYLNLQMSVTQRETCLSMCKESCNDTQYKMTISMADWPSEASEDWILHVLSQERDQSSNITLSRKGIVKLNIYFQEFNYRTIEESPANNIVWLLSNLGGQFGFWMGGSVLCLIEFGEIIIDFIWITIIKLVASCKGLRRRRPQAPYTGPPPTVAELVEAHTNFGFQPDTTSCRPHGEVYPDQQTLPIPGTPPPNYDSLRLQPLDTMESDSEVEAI
Sequence (Q9WU39 1-655): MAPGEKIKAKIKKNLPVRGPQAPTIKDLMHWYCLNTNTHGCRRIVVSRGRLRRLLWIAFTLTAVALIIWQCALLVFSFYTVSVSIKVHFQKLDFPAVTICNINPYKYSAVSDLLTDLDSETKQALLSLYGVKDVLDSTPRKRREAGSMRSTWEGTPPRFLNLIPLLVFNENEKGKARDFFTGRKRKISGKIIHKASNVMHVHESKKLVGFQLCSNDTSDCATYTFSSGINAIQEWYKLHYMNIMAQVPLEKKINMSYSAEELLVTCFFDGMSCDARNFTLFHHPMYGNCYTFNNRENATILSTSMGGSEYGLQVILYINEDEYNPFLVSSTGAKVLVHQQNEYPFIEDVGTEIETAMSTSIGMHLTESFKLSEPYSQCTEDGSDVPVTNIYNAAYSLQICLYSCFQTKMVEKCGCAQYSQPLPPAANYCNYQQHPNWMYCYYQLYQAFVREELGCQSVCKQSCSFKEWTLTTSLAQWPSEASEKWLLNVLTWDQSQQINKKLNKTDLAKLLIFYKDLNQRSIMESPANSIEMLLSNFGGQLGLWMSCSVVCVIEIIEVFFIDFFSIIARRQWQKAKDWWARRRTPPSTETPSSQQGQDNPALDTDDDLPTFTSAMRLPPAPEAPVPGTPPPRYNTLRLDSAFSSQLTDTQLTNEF
Assay: Ussing Chamber assay: inhibition of amiloride sensitive short circuit current (I_sc) in M-1 cells
Type: cell-based
Settings: Ussing Chamber; mouse kidney M-1 cells on transwell filters; short circuit current; compound added to apical solution; 37° C.; read-out: IC50
Reported log10(IC50) values for a set of compounds
endpoint-name: log10(IC50) (log10 of the value in nM)

>  <test-smiles>
COC(=O)c1cccc(NC(=O)CN2CCC(NC(N)=NC(=O)c3nc(Cl)c(N)nc3N)CC2)c1

>  <assayed-system>
epithelial sodium channel (ENaC) (Mus musculus, UniProt Q61180+Q9WU38+Q9WU39)

>  <endpoint-name>
log10(IC50)

>  <quantitative-readout>
0.48

$$$$
>  <test-smiles>
CC(C)(C)OC(=O)C1CCN(C(=O)CN2CCC(NC(N)=NC(=O)c3nc(Cl)c(N)nc3N)CC2)CC1

>  <assayed-system>
epithelial sodium channel (ENaC) (Mus musculus, UniProt Q61180+Q9WU38+Q9WU39)

>  <endpoint-name>
log10(IC50)

>  <quantitative-readout>
1.23

$$$$
>  <test-smiles>
COC(=O)CCCN1CCC(NC(N)=NC(=O)c2nc(Cl)c(N)nc2N)CC1

>  <assayed-system>
epithelial sodium channel (ENaC) (Mus musculus, UniProt Q61180+Q9WU38+Q9WU39)

>  <endpoint-name>
log10(IC50)

>  <quantitative-readout>
1.43

$$$$
>  <test-smiles>
NC(=NC(=O)c1nc(Cl)c(N)nc1N)NC1CCN(CC(=O)OCc2ccccc2)CC1

>  <assayed-system>
epithelial sodium channel (ENaC) (Mus musculus, UniProt Q61180+Q9WU38+Q9WU39)

>  <endpoint-name>
log10(IC50)

>  <quantitative-readout>
0.78

$$$$
>  <test-smiles>
CC(C)(C)OC(=O)CN1CCC(NC(N)=NC(=O)c2nc(Cl)c(N)nc2N)CC1

>  <assayed-system>
epithelial sodium channel (ENaC) (Mus musculus, UniProt Q61180+Q9WU38+Q9WU39)

>  <endpoint-name>
log10(IC50)

>  <quantitative-readout>
0.48

$$$$
>  <test-smiles>
CN(C)CC(=O)N(C)c1ccc(NC(=O)CN2CCC(NC(N)=NC(=O)c3nc(Cl)c(N)nc3N)CC2)cc1

>  <assayed-system>
epithelial sodium channel (ENaC) (Mus musculus, UniProt Q61180+Q9WU38+Q9WU39)

>  <endpoint-name>
log10(IC50)

>  <quantitative-readout>
0.00

$$$$
